# target desc: T1, BCMA (Homo sapiens (Human), UniProt Q02223 1-54, limits assumed)
# T1 sequence: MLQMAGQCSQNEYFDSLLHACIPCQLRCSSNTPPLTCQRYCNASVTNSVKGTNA
# experimental details: ELISA, format not described
# Set-up: unit not given here
We label by threshold. Values of ELISA_avg strictly beneath 10 are MET. Values of 10 and up are NOT MET.

Problem: Please check: ELISA_avg for D-domain SEQ ID NO: 77 (designed binder) MGSWYEFQVRLQAISWRLKALGGSEAELAAFEKEIAAFESELQAYKGKGNHEVEELRIQAALIRVMLQAYRHN , strictly under 10 or not?
Result: NOT MET

Problem: Please check: ELISA_avg for D-domain SEQ ID NO: 101 (designed binder) MGSWVEFYDRLEAIRYRLSALGGSEAELAAFEKEIAAFESELQAYKGKGNPEVEELRYIAAVIRYRLQAYRHN , strictly under 10 or not?
Result: MET

Problem: Please check: ELISA_avg for D-domain SEQ ID NO: 46 (designed binder) MGSWREFAWRLVAINSRLKALGGSEAELAAFEKEIAAFESELQAYKGKGNPEVEELRHYAASIRDGLQAYRHN , strictly under 10 or not?
Result: MET

Problem: Please check: ELISA_avg for D-domain SEQ ID NO: 264 (designed binder) MGSWAHFKYRLAIIKFWLEALGGSEAELANFEEYIAEFESTLQVYKGKGNPEVEALRKEAAAIRDELQAYRHN , strictly under 10 or not?
Result: NOT MET

Problem: Please check: ELISA_avg for D-domain SEQ ID NO: 324 (designed binder) MGSWVEFKHNLAWIKVTLEALGGSEAELAVFEYYIAQFEEQLQEYKGKGNPEVEALRKEAAAIRDELQAYRHN , strictly under 10 or not?
Result: NOT MET

Problem: Please check: ELISA_avg for D-domain SEQ ID NO: 138 (designed binder) MGSWYEFHTRLIAIYVRLWALGGSEAELAAFEKEIAAFESELQAYKGKGNPEVEWLRGDAAKIRGYLQAYRHN , strictly under 10 or not?
Result: MET

Problem: Please check: ELISA_avg for D-domain SEQ ID NO: 162 (designed binder) MGSWMEFKHRLAAITFRLRALGGSEAELAAFEKEIAAFESELQAYKGKGNPEVELLRDKAAYIRLLLQAYRHN , strictly under 10 or not?
Result: MET

Problem: Please check: ELISA_avg for D-domain SEQ ID NO: 323 (designed binder) MGSWIQFKYGLAHIKRTLEALGGSEAELAVFEWYIADFEQQLQGYKGKGNPEVEALRKEAAAIRDELQAYRHN , strictly under 10 or not?
Result: MET

Problem: Please check: ELISA_avg for D-domain SEQ ID NO: 267 (designed binder) MGSWTHFKYRLALIKWWLEALGGSEAELAGFEVHIADFEAQLQMYKGKGNPEVEALRKEAAAIRDELQAYRHN , strictly under 10 or not?
Result: MET

Problem: Please check: ELISA_avg for D-domain SEQ ID NO: 44 (designed binder) MGSWYEFSWRLQAIHQRLNALGGSEAELAAFEKEIAAFESELQAYKGKGNPEVEELRAYAAGIRGALQAYRHN , strictly under 10 or not?
Result: MET

Problem: Please check: ELISA_avg for D-domain SEQ ID NO: 336 (designed binder) MGSWYLFQSHLAHIKHHLEALGGSEAELAWFEFTIAGFEQELQHYKGKGNPEVEALRKEAAAIRDELQAYRHN , strictly under 10 or not?
Result: MET

Problem: Please check: ELISA_avg for D-domain SEQ ID NO: 45 (designed binder) MGSWHEFTWRLIAIQQRLEALGGSEAELAAFEKEIAAFESELQAYKGKGNPEVEELRAYAAGIRHHLQAYRHN , strictly under 10 or not?
Result: NOT MET

Problem: Please check: ELISA_avg for D-domain SEQ ID NO: 141 (designed binder) MGSWNEFRNRLGAIDSRLWALGGSEAELAAFEKEIAAFESELQAYKGKGNPEVETLRAHAAIIRSVLQAYRHN , strictly under 10 or not?
Result: MET

Problem: Please check: ELISA_avg for D-domain SEQ ID NO: 140 (designed binder) MGSWVEFRYRLGAIYHRLWALGGSEAELAAFEKEIAAFESELQAYKGKGNPEVEVLRDRAATIRRLLQAYRHN , strictly under 10 or not?
Result: NOT MET

Problem: Please check: ELISA_avg for D-domain SEQ ID NO: 159 (designed binder) MGSWVEFEQRLHAIVVRLRALGGSEAELAAFEKEIAAFESELQAYKGGGNPEVENLRDQAAYIRFMLQAYRHN , strictly under 10 or not?
Result: NOT MET

Problem: Please check: ELISA_avg for D-domain SEQ ID NO: 209 (designed binder) MGSWEEFDNRLEAIFDRLEALGGSEAELAAFEKEIAAFESELQAYKGKGNPEVEELREFAATIRITLQAYRHN , strictly under 10 or not?
Result: MET

Problem: Please check: ELISA_avg for D-domain SEQ ID NO: 57 (designed binder) MGSWVEFAWRLEAIKQRLTALGGSEAELAAFEKEIAAFESELQAYKGKGNPEVEELRLYAAKIRRVLQAYRHN , strictly under 10 or not?
Result: MET

Problem: Please check: ELISA_avg for D-domain SEQ ID NO: 170 (designed binder) MGSWVEFDNRLYAIVDRLRALGGSEAELAAFEKEIAAFESELQAYKGKGNPEVEHLRQKAAYIRLILQAYRHN , strictly under 10 or not?
Result: NOT MET
